test: Inhibition of Strep-tagged recombinant human RHBDL2 extracted from Expi293 cells using KSp118 as substrate incubated for 1 hr by fluorescence based assay; assay type: cell-free
pIC50: −log10 of the molar value. Starred links: 1 amine or outer side, 2 acyl side, 3 side chain; linkers in the order of their positions; H or OH if unused. Non-standard residues stand in square brackets, D forms with d. Residues, ends and D or L forms follow the SMILES beside them. *: point of attachment. Pheol(OBn) = c1ccc(COC[C@H](Cc2ccccc2)N*)cc1; NH(4-phenylbutyl) = c1ccc(CCCCN*)cc1; X1 = C[C@H](N[*:1])C(=O)C(=O)[*:2]
Respond with label 1 for pIC50 values of 6 and above, label 0 for values below.

compound="CC(=O)N[C@@H](C)C(=O)N[C@H](C(=O)N[C@@H](Cc1ccccc1)C(=O)N[C@@H](CC(C)C)C(=O)N[C@@H](C)C(=O)C(=O)N[C@H](COCc1ccccc1)Cc1ccccc1)C(C)C (Ac-AVFL[X1]-{Pheol(OBn)})" assigned_label="label 0"
compound=CC(C)CC(=O)N[C@H](C(=O)N[C@@H](C)C(=O)N[C@@H](CCCCN)C(=O)N[C@@H](C)C(=O)C(=O)NCCCCc1ccccc1)C(C)C assigned_label="label 1"
compound="CC(=O)N[C@@H](C)C(=O)N[C@H](C(=O)N[C@@H](Cc1ccccc1)C(=O)N[C@@H](CC(C)C)C(=O)N[C@@H](C)C(=O)C(=O)NCCCCc1ccccc1)C(C)C (Ac-AVFL[X1]-{NH(4-phenylbutyl)})" assigned_label="label 0"
compound=CC(=O)N[C@H](C(=O)N[C@@H](CCCNC(=N)N)C(=O)N[C@@H](Cc1c[nH]cn1)C(=O)N[C@@H](C)C(=O)C(=O)NCCCCc1ccccc1)C(C)C assigned_label="label 0"
compound=CC(=O)N[C@H](C(=O)N[C@@H](CCCNC(=N)N)C(=O)N[C@@H](Cc1c[nH]cn1)C(=O)N[C@@H](C)C(=O)C(=O)N[C@H](COCc1ccccc1)Cc1ccccc1)C(C)C assigned_label="label 0"
